Numbers sourced from ChEMBL document CHEMBL4689842.

- Tested on: Fibroblast
- assay remarks: Incucyte cell viability with human fibroblast; also: filed as whole numbers so only -1 and 0 and 1 occur
- Format: toxicity, cell-based
- protocol conditions: 12 h, 10 µM, compound concentration 10 uM, replicate number 1, timepoint 12 hours
Parameter Growth Rate: see the listing below.
assay readout: Growth Rate

compound="CC(=O)c1c(NS(C)(=O)=O)c2cc(-c3ccc(Cl)cc3)c(-c3ccc(Cl)cc3Cl)nc2n(C)c1=O [MRL-CB1-NC]" target_entity=Fibroblast test_result=0
compound=NS(=O)(=O)c1c(Cl)ccc(NC(=O)Nc2cccc(Cl)c2Cl)c1O target_entity=Fibroblast test_result=1
compound="N#Cc1c[nH]c2c(C(=O)N3CCN(CCc4ccc(F)cc4)CC3)cccc12 [PRUVANSERIN]" target_entity=Fibroblast test_result=0
compound=COc1cc(OC)cc(-c2noc(N3CCN(C)C4(CCN(c5ccnc(C)c5)CC4)C3)n2)c1 target_entity=Fibroblast test_result=1
compound=Cc1c(C(=O)O)cc(-c2ccc(C3CCNCC3)cc2)c2ccc(-c3ccc(C(F)(F)F)cc3)cc12.Cl target_entity=Fibroblast test_result=0
compound="CC(=O)C1=C(C)N(c2cccc(C(F)(F)F)c2)C(=O)N[C@@H]1c1ccc(C#N)nc1 [BAY-678]" target_entity=Fibroblast test_result=0
compound=O=C(Nc1ccc(Cl)cc1)Nc1cccc(-c2cccc(N3CCCC3)n2)c1 target_entity=Fibroblast test_result=0
compound="O=C1O[C@]2(CC[C@H](C(=O)Nc3ccn(-c4ccccc4F)n3)CC2)c2cnccc21 [MK-0557]" target_entity=Fibroblast test_result=0
